Tested on: methionyl-tRNA synthetase (Trypanosoma brucei brucei)
Assay: T. brucei MetRS aminoacylation inhibitors, late-stage follow-up, counter-screen for T. brucei MetRS inhibitor project, biochemical, radioactivity, assay provider (AID 720623)
Conditions: Recombinant T. brucei MetRS enzyme, [3H]methionine tRNA aminoacylation, filter scintillation, 120 min; inhibition; at 1 µM; stronger effect = higher value
quantity_kind: inhibition (%)

Cc1ccc(NC(=O)CN(C)C(=O)CCSc2ccc(F)cc2)cc1: -1.05
Oc1c(Cl)cc(Cl)cc1CNc1nc2ccccc2[nH]1: 88.3
CCO[C@H]1OC(C(=O)NCc2nc3ccccc3[nH]2)=C[C@@H](c2ccc(Br)cc2)[C@@H]1CCCO: 0.88
Clc1ccc(-c2nnc(SCc3nc4ccccc4[nH]3)o2)c(Cl)c1: 75.3
COc1ccc2[nH]c3nc(SCC(=O)Nc4ccc5c(c4)OCO5)nnc3c2c1: 63.4
O=C(NCc1nc2ccccc2[nH]1)C1=C[C@@H](c2csc3ccccc23)C[C@@H](OCCCCO)O1: 20.6
O=C(NCc1nc2ccccc2[nH]1)C1=C[C@H](c2ccc3c(c2)OCO3)C[C@H](OCCCCO)O1: 5.68
O=C(CC(=O)Nc1cccc(Cl)c1)NN=Cc1ccccc1: 28.2
O=C(NCc1nc2ccccc2[nH]1)C1=C[C@@H](c2ccc(Br)cc2)C[C@@H](OCCCCO)O1: 84.2
Clc1ccc(OCCSCc2nc3ccccc3[nH]2)cc1: -2.58

[I] O=C(NCc1nc2ccccc2[nH]1)C1=C[C@@H](c2ccc(Br)cc2)C[C@@H](OCc2ccc(CO)cc2)O1
[II] O=C(NNC(=O)c1ccc(-n2cncn2)c([N+](=O)[O-])c1)c1ccc(Cl)cc1
Compare I and II and name the one whose reported inhibition is smaller. // respond with label for picked entry
II

* * *

System: methionyl-tRNA synthetase (Trypanosoma brucei brucei)
Assay: T. brucei MetRS aminoacylation inhibitors, late-stage follow-up, counter-screen for T. brucei MetRS inhibitor project, biochemical, radioactivity, assay provider (AID 720623)
Conditions: Recombinant T. brucei MetRS enzyme, [3H]methionine tRNA aminoacylation, filter scintillation, 120 min; at 10 µM; stronger effect = higher value
quantity_kind: inhibition (%)

CCCCCCCCCC1NC(C(=O)O)Cc2c1[nH]c1ccccc21 (centres undefined): 93.2
CN1CC(=O)N2C(c3cccc([N+](=O)[O-])c3)c3[nH]c4ccccc4c3C[C@H]2C1=O (some centres undefined): 96.7
O=C(NCc1nc2ccccc2[nH]1)C1=C[C@@H](c2ccccc2)C[C@@H](OCc2ccc(CO)cc2)O1: 94.3
O=C(NNC(=O)c1ccc(-n2cncn2)c([N+](=O)[O-])c1)c1ccc(Cl)cc1: 73
O=C(NCc1nc2ccccc2[nH]1)C1=C[C@H](c2ccc3c(c2)OCO3)C[C@H](OCCCCO)O1: 79.4
CN(Cc1cc(Cl)cc(Cl)c1)[C@H]1C[C@H]2c3[nH]c4ccccc4c3CCN2C(=O)[C@H]1CO: 101
O=C(N/C(=C\c1cccnc1)c1nc2ccccc2[nH]1)c1cccc(Br)c1: 71.7
CCO[C@@H]1OC(C(=O)NCc2nc3ccccc3[nH]2)=C[C@H](c2ccc(Br)cc2)[C@H]1CCCO: 64
O=C(CCC(=O)Nc1cccc([N+](=O)[O-])c1)NN=Cc1cccs1: 74.3

* * *

Test system: methionyl-tRNA synthetase (Trypanosoma brucei brucei)
Assay: T. brucei MetRS aminoacylation inhibitors, late-stage follow-up, counter-screen for T. brucei MetRS inhibitor project, biochemical, radioactivity, assay provider (AID 720623)
Settings: Recombinant T. brucei MetRS enzyme, [3H]methionine tRNA aminoacylation, filter scintillation, 120 min; at 10 µM; stronger effect = higher value
quantity_kind: inhibition (%)

The following molecules have reported results that may help.
CC(=O)c1c[nH]c(C(=O)NCc2cccc(C(F)(F)F)c2)c1: 92.7
Cc1ccc(NC(=O)CN(C)C(=O)CCSc2ccc(F)cc2)cc1: 67.3
O=C(Cn1cc(C(=O)C(=O)N2CCOCC2)c2ccccc21)Nc1cccc(C(F)(F)F)c1: 100
O=C(NCc1nc2ccccc2[nH]1)C1=C[C@@H](c2ccc3c(c2)OCO3)C[C@@H](OCCCCO)O1: 93.7
Brc1cnc2nc(SCc3nc4ccccc4[nH]3)[nH]c2c1: 84.9
CCO[C@H]1OC(C(=O)NCc2nc3ccccc3[nH]2)=C[C@@H](c2ccc(Br)cc2)[C@@H]1CCCO: 81.6
COc1ccc(CNC(=O)CSc2nnc3c(n2)[nH]c2ccc(F)cc23)cc1: 89.6

[I] O=C(Nc1ccc(F)c(Cl)c1)C1CC(=O)n2c(nc3ccccc32)N1 (stereo not given)
[II] O=C(NCc1nc2ccccc2[nH]1)C1=C[C@H](c2ccccc2)C[C@H](OCc2ccc(CO)cc2)O1
[III] O=C(CN1CCSC1=NCc1ccccc1)c1ccc(Cl)c(Cl)c1
Task for the reader: rank each entry by its inhibition, from the minimum upward. Enter labels, ranked according to the request.
III, II, I

* * *

System: methionyl-tRNA synthetase (Trypanosoma brucei brucei)
Assay: T. brucei MetRS aminoacylation inhibitors, late-stage follow-up, counter-screen for T. brucei MetRS inhibitor project, biochemical, radioactivity, assay provider (AID 720623)
Conditions: Recombinant T. brucei MetRS enzyme, [3H]methionine tRNA aminoacylation, filter scintillation, 120 min; at 10 µM; stronger effect = higher value
quantity_kind: inhibition (%)

O=C1[C@@H]2Cc3c([nH]c4ccccc34)C(c3cccc([N+](=O)[O-])c3)N2C(=O)CN1CCCO (some centres undefined): 97.5
O=C(NCc1nc2ccccc2[nH]1)C1=C[C@@H](C2CC2)C[C@@H](OCc2ccc(CO)cc2)O1: 93.6
CC(C)(C)[C@@H]1C=C(C(=O)NCc2nc3ccccc3[nH]2)O[C@H](OCc2ccc(CO)cc2)C1: 84.8
O=C(CC=NOCc1ccc([N+](=O)[O-])cc1)Nc1ccc(Cl)cc1: 86.5
O=C(NCc1nc2ccccc2[nH]1)C1=C[C@H](c2csc3ccccc23)C[C@H](OCCCCO)O1: 97.8
CN(CC(=O)Nc1ccc(Cl)cc1)C(=O)c1ccc(-n2cncn2)c([N+](=O)[O-])c1: 92.5
CC(CC(=O)Nc1cccc(Br)c1)=NNC(=O)c1ccc(O)cc1O: 90.5
O=C(NCc1nc2ccccc2[nH]1)C1=C[C@H](c2ccc(Br)cc2)C[C@H](OCCCCO)O1: 94.3
O=C(CC=NOCc1ccc([N+](=O)[O-])cc1)Nc1ccc(Br)cc1: 84.7

* * *

System: methionyl-tRNA synthetase (Trypanosoma brucei brucei)
Assay: T. brucei MetRS aminoacylation inhibitors, late-stage follow-up, counter-screen for T. brucei MetRS inhibitor project, biochemical, radioactivity, assay provider (AID 720623)
Conditions: Recombinant T. brucei MetRS enzyme, [3H]methionine tRNA aminoacylation, filter scintillation, 120 min; at 10 µM; stronger effect = higher value
quantity_kind: inhibition (%)

Use the examples below as a reference point.
O=C(Cn1cnc2ccccc21)Nc1cccc([N+](=O)[O-])c1: 91.9
O=C(NCCc1nc2ccccc2[nH]1)c1ccc(Cl)c([N+](=O)[O-])c1: 99.6
O=C(NNC(=O)c1cc(-c2ccc(Cl)c(Cl)c2)nc2ccccc12)Nc1ccccc1: 85.5
COc1ccccc1-n1c(SCC(=O)Nc2ccc(Cl)cc2)nc(O)c(Cc2ccccc2)c1=O: 67
COc1ccc(OCC(O)CNC(=O)Nc2ccc(Cl)cc2)cc1 (stereo unspecified): 61.9
CC(C)OCCCN1CC(=O)N2C(c3cccc([N+](=O)[O-])c3)c3[nH]c4ccccc4c3C[C@H]2C1=O (stereo partly specified): 93.1
COc1ccccc1NS(=O)(=O)c1cccc(NC(=O)Nc2ccccc2)c1: 95.1
CCOC(=O)N1CCC(Nc2c(Nc3ccc(F)cc3)c(=O)c2=O)CC1: 72.7
C[C@H](O)[C@@H]1C(=O)N2CCc3c([nH]c4ccccc34)[C@@H]2C[C@@H]1N(C)Cc1ccc2c(c1)OCO2: 80.4
O=C(C[C@H]1C(=O)N(Cc2ccccc2)C[C@@H]1c1ccc(Br)cc1)Nc1ccc(Br)cc1: 94.4

[1] COc1cccc(NC(=O)CSc2nnc3c(n2)[nH]c2ccc(C)cc23)c1
[2] COc1ccc2[nH]c3nc(SCC(=O)Nc4ccc5c(c4)OCO5)nnc3c2c1
Lower inhibition: 1 or 2 ? State your choice using its label.
2
(2: 65.6%, 1: 94.2%)

[1] O=C(NCc1nc2ccccc2[nH]1)C1=C[C@@H](c2csc3ccccc23)C[C@@H](OCCCCO)O1
[2] O=C(NCc1nc2ccccc2[nH]1)C1=C[C@H](C2CC2)C[C@H](OCc2ccc(CO)cc2)O1
Hey, which is lower on measured inhibition, 1 or 2 ? Select an item and report its label.
2
(2: 56.9%, 1: 89.2%)

* * *

Tested on: methionyl-tRNA synthetase (Trypanosoma brucei brucei)
Experiment: T. brucei MetRS aminoacylation inhibitors, late-stage follow-up, counter-screen for T. brucei MetRS inhibitor project, biochemical, radioactivity, assay provider (AID 720623)
Settings: Recombinant T. brucei MetRS enzyme, [3H]methionine tRNA aminoacylation, filter scintillation, 120 min; inhibition; at 1 µM; stronger effect = higher value
quantity_kind: inhibition (%)

See these solved cases before continuing.
CCCCCCCCCC1NC(C(=O)O)Cc2c1[nH]c1ccccc21 (stereo not drawn): 64.7
CC(CC(=O)Nc1cccc(Br)c1)=NNC(=O)c1ccc(O)cc1O: 36.5
O=C(NCc1nc2ccccc2[nH]1)C1=C[C@H](c2ccc(Br)cc2)C[C@H](OCc2ccc(CO)cc2)O1: 50.3

[P] O=C(NCc1nc2ccccc2[nH]1)C1=C[C@@H](c2ccccc2)C[C@@H](OCc2ccc(CO)cc2)O1
[Q] COc1ccc(OCC(O)CNC(=O)Nc2ccc(Cl)cc2)cc1 (stereo not drawn)
Field: lower inhibition | Options: P / Q // respond with label for picked entry
Q
